Tested on: c-Myc
procedure.summary: c-Myc ELISA assay protocol in 22RV-1 cells
Format: cell-based, human
test.settings: 18 h, read-out: cMyc IC50
measurement.type: IC50

Example cases with answers are listed next.
Cc1sc2c(c1C)C(c1ccc(Cl)cc1)=N[C@@H](CC(=O)N[C@@H](C)c1ccc(OCCOCCNc3cccc4c3C(=O)N(C3CCC(=O)NC3=O)C4=O)c(F)c1)c1nnc(C)n1-2 (some centres unmarked); < 50 nM
Cc1sc2c(c1C)C(c1ccc(Cl)cc1)=N[C@@H](CC(=O)NCCCOCCCNc1cccc3nc(C)n(C4CCC(=O)NC4=O)c(=O)c13)c1nnc(C)n1-2 (some centres unmarked); > 50 nM
Cc1sc2c(c1C)C(c1ccc(Cl)cc1)=N[C@@H](CC(=O)N[C@H](C)c1ccc(OCCOCCNc3cccc4c3C(=O)N(C3CCC(=O)NC3=O)C4=O)cc1)c1nnc(C)n1-2 (some centres unmarked); < 50 nM
Cc1sc2c(c1C)C(c1ccc(Cl)cc1)=N[C@@H](CC(=O)NCCCCNc1cccc3c1CN(C1CCC(=O)NC1=O)C3=O)c1nnc(C)n1-2 (some centres unmarked); > 50 nM

Q: Given the compound Cc1sc2c(c1C)C(c1ccc(Cl)cc1)=N[C@@H](CC(=O)NCCCOCCCNc1cccc3c1CN(C1CCC(=O)NC1=O)C3=O)c1nnc(C)n1-2 (some centres unmarked) , what is its reported IC50?
A: < 50 nM

Source listed as patent US11834460B2.
